Molecular target: T1, human pro-myostatin (human, UniProt O14793 24-375, biotinylated (in the SPR assay))
T1 construct: Disulfide-linked homodimer; also called proGDF8 (human)
Experiment: SPR Biacore 8K, biotin-antigen captured
Readout Type: Kd (nM)
Could you give me the number in nM? Just the number is fine.

In: Tell me measured Kd for Ab114 (antibody, human IgG4 S228P, kappa, V domains shown) VH: QVQLVQSGAEVKKPGASVKVSCKVSGGTFRSYTIHWVRQAPGKGLEWMGGMNPSSGHTIYAQKFQGRVTMTEDTSTDTAYMELSSLKSEDTAVYYCARGLDYGEGYYYYGMDVWGQGTTVTVSS VL: DIQMTQSPSSVSASVGDRVTITCRASQGISESLAWYQQKPGKAPKLLIYSASSLESGVPSRFSGSGSGTDFTLTISSLQPEDFANYYCQQGYSSPPYTFGGGTKVEIKR please.
Out: 1.74

In: State its Kd for this binder: Ab109 (antibody, human IgG4 S228P, kappa, V domains shown, human IgG4 in the EM experiment; also called Ab109 Human IgG4) VH: EVQLVESGGGLVQPGGSLRLSCAASGFTFSSYGMSWVRQAPGKGLELVASFTGSGGTYYPDSVKGRFTISRDNAKNSLYLQMNSLRAEDTAVYYCARDLLIRFLEWSHYYGMDVWGQGTTVTVSS VL: DIVMTQSPLSLPVTPGEPASISCRSSQSLLHSSGHNFLHWYLQKPGQSPQLLIYEVSNRVSGVPDRFSGSGSGTDFTLKISRVEAEDVGVYYCMQQTQYPPTFGGGTKVEIKR
Out: 0.138

In: Determine from records and report Kd for Ab101 (antibody, human IgG4 S228P, kappa, V domains shown) VH: EVQLVESGGGLVQPGGSLRLSCAASGSAFSSYGMSWVRQAPGKGLELVASINSNGGSTYYPDSVKGRFTISRDNAKNSLYLQMNSLRAEDTAVYYCARDLLVRFLEWSHYYGMDVWGQGTTVTVSS VL: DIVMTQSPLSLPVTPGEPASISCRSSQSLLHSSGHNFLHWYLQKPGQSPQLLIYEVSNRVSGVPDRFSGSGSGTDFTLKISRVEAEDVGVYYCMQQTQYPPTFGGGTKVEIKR
Out: 0.078
